Tested on: T-47D breast
testMethodNotes: NCI-60 one-dose screen, 48 h (100 = growth as untreated, 0 = no growth, -100 = all killed)
measurementContext: 10 µM unless noted
Compounds without any hit were thinned out: in the full panel of roughly 83,000, 20% have a hit.
Entry flag: condition met if growth reaches 40%; condition not met if it does not.

[[record]]
molecule = "COc1cc(/C=C2\\COc3ccc(O)c(O)c3C2=O)cc(OC)c1"
labelclass = "condition not met"

[[record]]
molecule = "O=C(Nc1cccc([N+](=O)[O-])c1)c1cccc(C(=O)Nc2cccc([N+](=O)[O-])c2)c1"
labelclass = "condition met"

[[record]]
molecule = "Oc1ccccc1/C=N\\Nc1ccccc1"
labelclass = "condition met"

[[record]]
molecule = "COc1ccc2c(c1)nc(N)c1c3ccccc3cn21"
labelclass = "condition met"

[[record]]
molecule = "COc1cccc2c1C(=O)c1c(O)c3c(c(O)c1C2=O)C[C@@](O)(/C(C)=N/NC(=O)c1cccc([N+](=O)[O-])c1)C[C@@H]3OC1CC(N)C(O)C(C)O1 (stereo not given in full)"
labelclass = "condition not met"


====

Tested on: A549/ATCC NSCLC
testMethodNotes: NCI-60 one-dose screen, 48 h
measurementContext: 10 µM unless noted
Procedure: Growth inhibition of the A549/ATCC human Non-Small Cell Lung tumor cell line is measured as a screen for anti-cancer activity. Cells are grown in 96 well plates and exposed to the test compound for 48 hours. Compounds are tested at a single concentration, which is 10^-5 M for most compounds. The reported endpoint is percent growth (GI% or GIPRCNT), where numbers from 0 - 100% represent growth inhibition, and numbers from -100% - 0 represent cell death. […]
About 83,000 compounds went through this panel and 20% of them were active in at least one assay; those are over-represented in the sample as a whole. Activity calls are given as the source filed them. The calls were made as follows: active = growth percent below 10; inactive = the rest.
Classes used: true (active), false (inactive)

[[record]]
molecule = "C[C@]12CC[C@@H]3c4ccc(O)c([N+](=O)[O-])c4CC[C@H]3[C@@H]1CC[C@@H]2NS(=O)(=O)c1cccc(Br)c1"
labelclass = "false"

[[record]]
molecule = "CCCCC1Nc2nc(SC)n(C)c(=O)c2CN(Cc2ccccc2)C1=O (configuration not stated)"
labelclass = "false"

[[record]]
molecule = "CN(C)c1ccc2c(c1)/C(=N/O)c1ccccc1-2"
labelclass = "false"

[[record]]
molecule = "O=C(c1ccccc1)c1ccco1"
labelclass = "false"

[[record]]
molecule = "O=C(C(=O)N1CCOCC1)c1ccc(OC2OC(CO)C(O)C(O)C2O)cc1 (configuration not stated)"
labelclass = "false"

[[record]]
molecule = "COc1cccc(-c2nnc(N)o2)c1"
labelclass = "false"

[[record]]
molecule = "Cc1cc(C(C)(C)c2cc(C)c(O)c(CN(C)C)c2)cc(CN(C)C)c1O"
labelclass = "false"

[[record]]
molecule = "NC(N)=NC(N)=NCCCc1ccccc1"
labelclass = "false"

[[record]]
molecule = "CC(=O)c1cc(C(=O)c2ccc3c(c2)Sc2ccccc2N3)c2c(C)cc(C)cn12"
labelclass = "true"

[[record]]
molecule = "COc1ccc2c(c1)C(=O)c1c-2c(=O)n(CCCCCCC(=O)NO)c2ccccc12"
labelclass = "true"

[[record]]
molecule = "COC(=O)[C@]12CC[C@@H](C)[C@H](C)[C@@H]1C1=CC[C@@H]3[C@@]4(C)C[C@@H](OC(=O)c5ccco5)[C@H](O)[C@@](C)(CO)[C@@H]4[C@H](O)C[C@@]3(C)[C@]1(C)CC2"
labelclass = "true"

[[record]]
molecule = "O=C(Oc1ccc[nH]c1=O)c1cccc(Cl)c1"
labelclass = "false"

[[record]]
molecule = "C=C(C)[C@@H]1C/C=C(/C=O)CC[C@@H]2O[C@@]2(C)CC/C=C(\\C)CC1"
labelclass = "false"

[[record]]
molecule = "CC(C)(C)c1ccc(S(=O)(=O)O)s1"
labelclass = "false"

[[record]]
molecule = "Cc1c(C(N)=O)sc2c1c(=O)n(Cc1ccccc1)c1nnc(SCC(=O)Nc3ccc(Cl)cc3)n21"
labelclass = "false"

[[record]]
molecule = "Cc1cc2c(cc1C)Nc1sc(NC(=O)CN3CCN(C)CC3)nc1C(=O)N2"
labelclass = "false"

[[record]]
molecule = "COc1ccc2nc(-c3ccc(-n4cncc4-c4ccc(OC)c(N)c4)cc3)sc2c1"
labelclass = "false"

[[record]]
molecule = "Cc1c(C)c(N2C(=O)C=CC2=O)c(C)c(C)c1N1C(=O)C=CC1=O"
labelclass = "false"

[[record]]
molecule = "CCOC(=O)/C(=C/c1ccccc1)C(=O)c1ccccc1"
labelclass = "false"

[[record]]
molecule = "COc1ccc2[nH]cc(/C=C3/C(=O)Nc4ccc(F)cc43)c2c1"
labelclass = "false"

[[record]]
molecule = "C/C(=C\\CCc1ccoc1)CC/C=C(\\C)CCCN1CCC(CO)CC1"
labelclass = "false"

[[record]]
molecule = "CCCCCCCCCCCCCCCCCC1=NC(C)(C)CN1CCO"
labelclass = "true"

[[record]]
molecule = "CC(C)C/C(=N\\NC(=O)c1ccncc1)c1cc(Cl)ccc1O"
labelclass = "false"

[[record]]
molecule = "CCC(C)CC(C)C(=O)c1c(O)ccn(O)c1=O (configuration not stated)"
labelclass = "false"

[[record]]
molecule = "N=C(N)/N=C(\\CCc1nc2ccccc2[nH]1)c1nc2ccccc2[nH]1"
labelclass = "false"

[[record]]
molecule = "COc1ccc(CCN2CCCN3C2=Nc2ccccc2S3(=O)=O)cc1"
labelclass = "false"

[[record]]
molecule = "CC/C=C\\C=C/C(=O)N/C=C/CC1Cc2cccc(O)c2C(=O)O1 (configuration not stated)"
labelclass = "false"


====

System: SF-539 CNS
testMethodNotes: NCI-60 one-dose screen, 48 h (100 = growth as untreated, 0 = no growth, -100 = all killed)
measurementContext: 10 µM unless noted
The panel holds about 83,000 compounds, 20% with a hit somewhere; the sample as a whole holds those more often.
propertyMeasured: growth (%)

[[record]]
compound = "CSc1ncc2ncn(C3OC(CO)C(O)C3O)c2n1 (centres undefined)"
val = 114

[[record]]
compound = "CC1=CC(=O)C(C(C)=Nc2ccccc2Cl)C(=O)O1 (centres undefined)"
val = 101

[[record]]
compound = "COc1cc(C2=NN(C(C)=O)C(c3ccc(OC(C)=O)cc3OC(C)=O)O2)c(OC(C)=O)c2ccccc12 (centres undefined)"
val = 7.95

[[record]]
compound = "Oc1ccc(-c2nn(-c3ccccc3)cc2-c2nc3ccccc3s2)cc1"
val = 102

[[record]]
compound = "CCC[C@H](N[C@@H](C)C(=O)N1[C@H](C(=O)O)C[C@@H]2CCCC[C@@H]21)C(=O)OCC"
val = 91.4

[[record]]
compound = "O=C(Nc1ccc(Cl)cc1)c1cc2c(cc1O)[nH]c1ccccc12"
val = 12.4

[[record]]
compound = "CN1CCN(CC(=O)Nc2nc3c(s2)Nc2cc(Cl)c(Cl)cc2NC3=O)CC1"
val = 107

[[record]]
compound = "Nc1nc(N)c([N+](=O)[O-])c(=O)[nH]1"
val = 106

[[record]]
compound = "COc1cc(/C=C/c2nnc(-c3cc(-c4ccccc4)n[nH]3)o2)cc(OC)c1OC"
val = 92.6


====

Here, each record is paired with measured growth data.
System: UACC-62 melanoma
testMethodNotes: NCI-60 one-dose screen, 48 h (100 = growth as untreated, 0 = no growth, -100 = all killed)
measurementContext: 10 µM unless noted
About 83,000 compounds went through this panel and 20% of them were active in at least one assay; those are over-represented in the sample as a whole. Activity calls are given as the source filed them. The calls were made as follows: active = growth percent below 10; inactive = the rest.
propertyMeasured: growth

[[record]]
molecule = "CCC(C)CC(C)C(=O)c1c(O)ccn(OC)c1=O (stereo not given)"
propertymeasured = "growth"
val = "92.3% (inactive)"

[[record]]
molecule = "CC1=C(C(=O)Nc2ccccc2)C(c2ccc3c(c2)OCCO3)NC(=O)N1 (stereo not given)"
propertymeasured = "growth"
val = "101% (inactive)"

[[record]]
molecule = "O=C(Nc1cccc2ccccc12)c1cc2c(cc1Br)OCO2"
propertymeasured = "growth"
val = "85.5% (inactive)"

[[record]]
molecule = "C/C(=N/N=C(N)N)c1ccc(Cl)cc1"
propertymeasured = "growth"
val = "91.2% (inactive)"

[[record]]
molecule = "N#CCCN(CCO)c1ccccc1"
propertymeasured = "growth"
val = "103% (inactive)"

[[record]]
molecule = "C/C(=C\\CCc1ccsc1)CC/C=C(\\C)CCCN1CCC(CO)CC1"
propertymeasured = "growth"
val = "-83.4% (active)"

[[record]]
molecule = "COc1ccc(C2CC(c3ccc(OC)c(OC)c3)=NN2C(=O)c2cc(OC)c(OC)c(OC)c2)c(OC)c1 (stereo not given)"
propertymeasured = "growth"
val = "58% (inactive)"

[[record]]
molecule = "COC(=O)C[C@@H]1CC=CC(=O)/C1=C(O)/C=C/c1ccccc1"
propertymeasured = "growth"
val = "-67.5% (active)"

[[record]]
molecule = "C=CCOc1ccc2c(c1)CC[C@@H]1[C@@H]2CC[C@@]2(C)[C@H]1CC[C@]2(C)O"
propertymeasured = "growth"
val = "85% (inactive)"

[[record]]
molecule = "COc1cc2c(c(OC)c1OC)-c1ccc(NN(C(=O)c3ccccc3)C(=O)c3ccccc3)c(=O)cc1[C@@H](NC(C)=O)CC2 (tested in a mixture with another compound)"
propertymeasured = "growth"
val = "59.6% (inactive)"

[[record]]
molecule = "CSc1nc2c(c(=O)n1C)C(c1ccccc1)C1=C(N2)/C(=C/c2ccccc2)CCC1 (stereo not given)"
propertymeasured = "growth"
val = "58.2% (inactive)"

[[record]]
molecule = "NNC(=O)C1CC2c3ccccc3C1c1ccccc12 (stereo not given)"
propertymeasured = "growth"
val = "97.1% (inactive)"

[[record]]
molecule = "O=C1C2C3C=CC(O3)C2C(=O)N1Nc1ccccc1 (stereo not given)"
propertymeasured = "growth"
val = "100% (inactive)"

[[record]]
molecule = "CCCc1cc(=O)n2c(C(=O)Nc3ccccc3OC)c(C(=O)Nc3ccc(F)cc3)sc2n1"
propertymeasured = "growth"
val = "66.6% [30 µM] (inactive)"

[[record]]
molecule = "N#CCNc1ccccc1N"
propertymeasured = "growth"
val = "95.3% (inactive)"

[[record]]
molecule = "ClC1C2CC(c3ccccc32)C1Cl (stereo not given)"
propertymeasured = "growth"
val = "101% (inactive)"

[[record]]
molecule = "COc1ccc(C(=O)/C=C/c2c(Cl)nc3c(c(C)nn3-c3ccccc3)c2-c2ccc(Br)cc2)cc1"
propertymeasured = "growth"
val = "91.8% (inactive)"

[[record]]
molecule = "O=C(CCc1nnc(SCc2ccccc2)s1)c1nc2ccccc2[nH]1"
propertymeasured = "growth"
val = "84.8% (inactive)"

[[record]]
molecule = "COc1ccc(/C=C2\\COc3ccc(O)c(O)c3C2=O)cc1OC"
propertymeasured = "growth"
val = "-29.4% (active)"

[[record]]
molecule = "CCOC(=O)/C=C(/C)Sc1cc(O)c2ccccc2c1O"
propertymeasured = "growth"
val = "36.3% (inactive)"

[[record]]
molecule = "Cc1nc2c(O)cccc2cc1CO"
propertymeasured = "growth"
val = "94.6% (inactive)"

[[record]]
molecule = "CC(=O)c1cc(C(=O)c2ccc3c(c2)Sc2ccccc2N3)c2c(C)cc(C)cn12"
propertymeasured = "growth"
val = "23.1% (inactive)"

[[record]]
molecule = "CN1C(=O)/C(=C/c2nc(-c3cccc(F)c3)n3ccccc23)c2ccccc21"
propertymeasured = "growth"
val = "71.3% (inactive)"

[[record]]
molecule = "CC1SC(c2c(Cl)cccc2Cl)N(NC(=O)c2[nH]c3ccc(F)cc3c2-c2ccccc2)C1=O (stereo not given)"
propertymeasured = "growth"
val = "74.8% (inactive)"

[[record]]
molecule = "Clc1nc(Cl)c2ncn(-c3ccccc3)c2n1"
propertymeasured = "growth"
val = "69% (inactive)"

[[record]]
molecule = "O=C(c1ccccc1)c1ccccc1Cl"
propertymeasured = "growth"
val = "99.6% (inactive)"

[[record]]
molecule = "C/C(=C\\CCc1ccsc1)CC/C=C(\\C)CCCN1CCN(CCO)CC1"
propertymeasured = "growth"
val = "-73.9% (active)"

[[record]]
molecule = "COc1ccccc1[C@H]1c2[nH]c3ccccc3c2C[C@H]2C(=O)N(CCCCCCC(=O)NO)CC(=O)N12"
propertymeasured = "growth"
val = "23.7% (inactive)"

[[record]]
molecule = "S=C1SCN(Cc2ccccc2)CN1Cc1ccco1"
propertymeasured = "growth"
val = "91.6% (inactive)"

[[record]]
molecule = "c1coc([C@@H]2C[C@@H]3Cc4ccc5ccccc5c4N2O3)c1"
propertymeasured = "growth"
val = "103% (inactive)"


Cited source for all entries: PubChem BioAssay (NCI)
